System: DU-145 prostate
Assay: NCI tumour cell line growth inhibition, 48 h; in the data active means GI50 below about 0.43 µM; inactive means the rest
Reply using exactly one outcome from True (active), False (inactive)

Example cases with answers are listed next.
[[record]]
smiles_notation = "O=C(Nc1cccc(C(F)(F)F)c1)Nc1cccc(C(F)(F)F)c1"
class_assignment = "False"

[[record]]
smiles_notation = "C#Cc1cccc(Nc2nc3cc([N+](=O)[O-])ccc3nc2Nc2ccc(O)cc2)c1"
class_assignment = "False"

[[record]]
smiles_notation = "C=C1C[C@H](O)[C@H](Br)C(C)(C)[C@@]12CCC(C)=C(Cl)C2"
class_assignment = "True"


Input: // param item: COc1cc(/C=C2\CN(S(=O)(=O)c3ccc(C)cc3)C/C(=C\c3cc(CN4CCCC4)c(O)c(OC)c3)C2=O)cc(CN2CCCC2)c1O ; yields the recorded call
Output: False

Input: Short answer needed: outcome of this test for COc1ccc(Cn2c(Br)c3c(c2Br)-c2nc(N)sc2CC3)cc1 ?
Output: False
